For each record, write down the corresponding %Inh.
tested on: PIP5K2B; details: concentration: 1 μM, replicates: in singlicate; n = 1

Sample `Cc1c(Cn2c3ccccc3n3c(=O)cc(N4CCOCC4)nc23)cccc1C(F)(F)F` ; %Inh observed: 20%

Sample `O=C(Nc1n[nH]c2cc(-c3ccsc3)ccc12)C1CC1` ; %Inh observed: 52%

Sample `Nc1nccc(-c2c(-c3ccc(F)cc3)ncn2C2CCN(Cc3ccccc3)CC2)n1` ; %Inh observed: 0%

Sample `Cc1ccccc1Cn1ccn2c(=O)cc(N3CCOCC3)nc12` ; %Inh observed: 12%

Sample O=C(Nc1n[nH]c2nc(-c3ccco3)c(Br)cc12)C1CCN(Cc2ccccc2)C1.O=C(O)[C@H](O)[C@@H](O)C(=O)O (centres unmarked) ; %Inh observed: 0%

Sample `CC(C)c1cc(-c2ccc3c(N)n[nH]c3c2)nc(N)n1` ; %Inh observed: 36%

Sample `CS(=O)(=O)CCNCc1nc(-c2ccc3ncnc(Nc4ccc(OCc5ccccc5)c(Cl)c4)c3c2)cs1.Cl` ; %Inh observed: 10%

Sample `CC(=O)c1c(C)c2cnc(Nc3ccc(N4CCNCC4)cn3)nc2n(C2CCCC2)c1=O` ; %Inh observed: 0%

----------
tested on: PDPK1; conditions: concentration: 1 μM, replicates: in singlicate; n = 1
assay.readout: %Inh (%)
Enter your answer as a number in %; do not include the unit.

Sample Nc1cccc(-c2ccc3c(N)n[nH]c3c2)n1 [GSK2192730] ; %Inh observed: 0

Sample Cc1c(Cn2c(C)c(C)n3c(=O)cc(N4CCOCC4)nc23)cccc1C(F)(F)F [GSK2328680] ; %Inh observed: 0

Sample Cc1cnc(N)c(/C=C/c2cncc(C(=O)NCCc3ccc(Cl)cc3Cl)c2)c1.Cl [GSK190937] ; %Inh observed: 0

Sample COc1ccc2cc(-c3nc(-c4ccccc4C(C)C)[nH]c3-c3ccncc3)ccc2c1 [SB-660566] ; %Inh observed: 0

Sample Cl.Cl.Cl.N#Cc1ccc(CCNc2nccc(-c3cccc(CN4CCNCC4)c3)n2)cc1 [GSK2137462] ; %Inh observed: 8

----------
tested on: JNK3; construct: gene MAPK10;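 further: kd values determined as follow-up on hits from a single-replicate KINOMEscan panel screen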
assay.readout: pKd
Convention used: pKd is expressed as -log10 of the molar concentration.

Sample `Nc1nccc(-c2c(-c3ccc(F)cc3)ncn2C2CCN(Cc3ccccc3)CC2)n1` ; pKd observed: 7.51

Sample `Fc1ccc(-c2nn3cccc(F)c3c2-c2ccncc2)cc1` ; pKd observed: 7.24

Sample `CCCCc1nn2ncccc2c1-c1ccnc(NC2CC2)n1` ; pKd observed: 6.13

----------
test system: CDK9; details: concentration: 1 μM, replicates: in singlicate; n = 1
For each record, write down the corresponding %Inh.
Enter your answer as a number in %; do not include the unit.

Sample `COc1cccc(NC(=O)Nc2ccc(C)c(-c3ccc(C(=O)Nc4ccncc4)cc3)c2)c1` ; %Inh observed: 0

Sample `CCc1ccc(-c2ccc3c(c2)-c2n[nH]cc2S(=O)(=O)N3C)cc1` ; %Inh observed: 0

Sample `O=C(Nc1n[nH]c2cc(-c3ccsc3)ccc12)C1CC1` ; %Inh observed: 17

Sample `O=C1NC(=O)C(c2ccc(Cl)cc2)=C1Nc1ccc(O)cc1` ; %Inh observed: 0

Sample `CNc1cc(-c2ccc3c(N)n[nH]c3c2)nc(N)n1` ; %Inh observed: 0

Sample `COc1ccc(Nc2nccc(NCCNC(=O)Nc3cc(C)ccc3C)n2)cc1` ; %Inh observed: 0

Sample `Cn1cnc2c(N)ncnc21` ; %Inh observed: 0

Sample `O=C(Nc1n[nH]c2nc(-c3cccs3)c(Br)cc12)C1CCCC1` ; %Inh observed: 27

Sample `CS(=O)(=O)CCNCc1nc(-c2ccc3ncnc(Nc4ccc5c(cnn5Cc5ccccc5)c4)c3c2)cs1.Cl.Cl` ; %Inh observed: 0
